Here, each record is paired with measured a (length of crystals) data.
# testContext: SEM image, N=200 crystals
Please respond with the number in μm and leave the unit unwritten.

Solved entries (count: 2):
[[record]]
molecule = "CCCCC1=NC2(CCCC2)C(=O)N1Cc1ccc(-c2ccccc2-c2nnn[nH]2)cc1 [Example 2]"
measurement = 78

[[record]]
molecule = "CCCCC1=NC2(CCCC2)C(=O)N1Cc1ccc(-c2ccccc2-c2nnn[nH]2)cc1 [Example 4]"
measurement = 130


Next molecule, a (length of crystals) to be filled in.
Incoming: Endpoint output: a (length of crystals) of CCCCC1=NC2(CCCC2)C(=O)N1Cc1ccc(-c2ccccc2-c2nnn[nH]2)cc1 [Example 1] . Value?
Outgoing: 14.9

###

Here, each record is paired with measured a (length of crystals) data.
# testContext: SEM image, N=200 crystals
Please respond with the number in μm and leave the unit unwritten.

[[record]]
compound = "CCCCC1=NC2(CCCC2)C(=O)N1Cc1ccc(-c2ccccc2-c2nnn[nH]2)cc1 [Example 5]"
measurement = 58

[[record]]
compound = "CCCCC1=NC2(CCCC2)C(=O)N1Cc1ccc(-c2ccccc2-c2nnn[nH]2)cc1 [Example 3]"
measurement = 20.7

[[record]]
compound = "CCCCC1=NC2(CCCC2)C(=O)N1Cc1ccc(-c2ccccc2-c2nnn[nH]2)cc1 [Example 6]"
measurement = 32


Incoming: Endpoint output: a (length of crystals) of CCCCC1=NC2(CCCC2)C(=O)N1Cc1ccc(-c2ccccc2-c2nnn[nH]2)cc1 [Example 7] . Value?
Outgoing: 21

###

# testContext: SEM image, N=200 crystals
readout: b (width of crystals)

Solved entries (count: 2):
[[record]]
molecule = "CCCCC1=NC2(CCCC2)C(=O)N1Cc1ccc(-c2ccccc2-c2nnn[nH]2)cc1 [Example 7]"
readout = "b (width of crystals)"
measurement = "2.6 ± 1.0 μm"

[[record]]
molecule = "CCCCC1=NC2(CCCC2)C(=O)N1Cc1ccc(-c2ccccc2-c2nnn[nH]2)cc1 [Example 4]"
readout = "b (width of crystals)"
measurement = "7.9 ± 3.4 μm"


Incoming: Endpoint output: b (width of crystals) of CCCCC1=NC2(CCCC2)C(=O)N1Cc1ccc(-c2ccccc2-c2nnn[nH]2)cc1 [Example 1] . Value?
Outgoing: 1.2 ± 1.4 μm

###

# testContext: SEM image, N=200 crystals
Here, each record is paired with measured b (width of crystals) data.
Please respond with the number in μm and leave the unit unwritten.

Solved entries (count: 3):
[[record]]
molecule = "CCCCC1=NC2(CCCC2)C(=O)N1Cc1ccc(-c2ccccc2-c2nnn[nH]2)cc1 [Example 3]"
readoutunits = "μm"
measurement = 1.0

[[record]]
molecule = "CCCCC1=NC2(CCCC2)C(=O)N1Cc1ccc(-c2ccccc2-c2nnn[nH]2)cc1 [Example 5]"
readoutunits = "μm"
measurement = 6.4

[[record]]
molecule = "CCCCC1=NC2(CCCC2)C(=O)N1Cc1ccc(-c2ccccc2-c2nnn[nH]2)cc1 [Example 6]"
readoutunits = "μm"
measurement = 1.4


Incoming: Endpoint output: b (width of crystals) of CCCCC1=NC2(CCCC2)C(=O)N1Cc1ccc(-c2ccccc2-c2nnn[nH]2)cc1 [Example 2] . Value?
Outgoing: 6.7
